# koff listing for each entry below
# tested target: Vaccinia Virus, Western Reserve, L1R Protein with C-Terminal Histidine Tag, Recombinant from baculovirus (Vaccinia virus, Western Reserve, UniProt P07612)
# protocol: SPR; […] (100 to 0 nM, […], dissociation 600 s; […]; Langmuir model; […]
# experimental parameters: both partners purified
Please state the figure in s⁻¹; there is no need to write the unit.

sdAb clone L1-G2 (VHH) VHH: EVQLQASGGGLVQAGGSLRLSCTASGRAFSTTNMGWFRQAPGKEREFVTRVNWSGGVTSYADSVKGRFTLSRDNTKNTVYLQMDSLKPEDTAVYYCAGSTVWSTDRKHYNYWGQGTQVTVSS    0.00063
sdAb clone L1-G2+neg (VHH) VHH: EVQLVESGGGLVQDGDSLRLSCTASGRAFSTTNMGWFRQAPGKEREFVCRVNWSGGVTSYADSVKGRFTCSRDNTKNTVYLQMDSLKPEDTAVYYCAGSTVWSTDRKHYNYWGQGTQVTVSS    0.0014
sdAb clone L1-G2+ (VHH) VHH: EVQLQASGGGLVQAGGSLRLSCTASGRAFSTTNMGWFRQAPGKEREFVCRVNWSGGVTSYADSVKGRFTCSRDNTKNTVYLQMDSLKPEDTAVYYCAGSTVWSTDRKHYNYWGQGTQVTVSS    0.0013

Q. Can you look up the measured koff of sdAb clone L1-G2+neg2 (VHH) VHH: EVQLVESGGGLVQDGDSLRLSCTASGRAFSTTNMGWFRQAPGKEREFVCRVNWSGGVTSYADSVKGRFTCSADNTKNTVYLQMDSLKPEDTAVYYCAGSTVWSTDRKHYNYWGQGTQVTVSS for me?
A. 0.013
